Each item that follows carries a reported pIC50.
- Study target: T1, mouse DLL4 expressed on CHO cells (mouse, UniProt Q9JI71 27-686)
- T1 construct: whole, on cells; also called mDLL4; CHO-mDLL4
- T1 sequence (Q9JI71 27-686): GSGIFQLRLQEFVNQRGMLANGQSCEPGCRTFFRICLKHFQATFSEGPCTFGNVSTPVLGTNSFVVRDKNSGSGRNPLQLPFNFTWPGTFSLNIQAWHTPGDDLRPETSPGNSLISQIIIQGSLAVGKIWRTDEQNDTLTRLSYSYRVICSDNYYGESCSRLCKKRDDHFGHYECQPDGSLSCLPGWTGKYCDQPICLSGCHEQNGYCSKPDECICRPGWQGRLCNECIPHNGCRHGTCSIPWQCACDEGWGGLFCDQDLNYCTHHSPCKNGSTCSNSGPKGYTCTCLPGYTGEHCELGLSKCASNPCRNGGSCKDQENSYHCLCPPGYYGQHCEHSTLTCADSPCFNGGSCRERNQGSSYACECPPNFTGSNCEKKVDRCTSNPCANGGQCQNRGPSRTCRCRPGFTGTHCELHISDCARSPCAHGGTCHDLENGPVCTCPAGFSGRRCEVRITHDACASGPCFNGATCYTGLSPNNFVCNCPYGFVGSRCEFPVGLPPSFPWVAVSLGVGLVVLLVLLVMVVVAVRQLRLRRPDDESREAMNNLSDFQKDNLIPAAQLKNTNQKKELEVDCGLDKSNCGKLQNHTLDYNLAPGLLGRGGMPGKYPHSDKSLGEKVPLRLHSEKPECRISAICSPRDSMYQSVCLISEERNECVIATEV
- Protocol: competition FMAT, labelled hNotch1-Fc on CHO-mDLL4 cells
Worth noting: pIC50 values are minus log10 of concentrations stated in mol/L.

As a guide, the following entries are already answered.
INSERT INTO measurements (binder, test_result) VALUES
  ('DLLBII036 (VHH, not shown: small tags and cut ends) VHH: EVQLVESGGGLVQPGGSLRLSCAASGFTFGSYDMSWVRRAPGKGPEWVSSISSGGGSTYYADYVKGRFTISRDNAKNTLYLQMNSLRPEDTAVYYCAADRYIWARQGEYWGAYEYDYWGQGTLVTVSS', 7.35),
  ('DLLBII129B05 (VHH, not shown: small tags and cut ends) VHH: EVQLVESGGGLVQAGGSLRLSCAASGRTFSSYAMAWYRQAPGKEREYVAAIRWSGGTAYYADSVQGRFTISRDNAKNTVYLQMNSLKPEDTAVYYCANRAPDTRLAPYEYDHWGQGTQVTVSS', 7.80);

// below: pIC50 requested for another binder
### Prompt Requested field: pIC50. Item: DLLBII039 (VHH, not shown: small tags and cut ends) VHH: EVQLVESGGGLVQPGGSLRLSCAASGFTIGSYDMSWVRRAPGKGPEWVSSISSGGGSTYYADYVKGRFTISRDNAKNTLYLQMNSLRPEDTAVYYCAADRYIWARQGEYWGAYEYDYWGQGTLVTVSS
### Response 7.36

Every entry's value here was drawn from patent US20140120095A1.
